- measurement_description: Displacement of [125I]CCK from Cholecystokinin receptor of guinea pig brain
- Parameters: species or system Cavia porcellus
assay_metric: pIC50
// scale note: pIC50 = -log10(conc_M); give the bare number

Quick one: pIC50 for O=C(NC1N=C(c2ccccc2)c2ccccc2-n2cnnc21)OCc1ccccc1 (centres undefined) ? 5.11

Quick one: pIC50 for O=C(NC1N=C(c2ccccc2F)c2ccccc2-n2cnnc21)c1ccc(Cl)cc1 (centres undefined) ? 5.03

Quick one: pIC50 for O=C(NC1N=C(c2ccccc2F)c2ccccc2-n2cnnc21)c1cc2ccccc2[nH]1 (centres undefined) ? 7.28

Quick one: pIC50 for O=C(NC1N=C(c2ccccc2F)c2ccccc2-n2cnnc21)OCc1ccccc1 (centres undefined) ? 5.10

----------
Kindly state ED50 for each of the entries shown.
- System: Mus musculus
- measurement_description: Effective dose for antagonism of CCK-8 inhibition of gastric emptying, 1 hr after oral administration
- Assay type: functional
- stated_conditions: Stomach
Answer with a number only, understood to be in mg/kg.

Quick one: ED50 for O=C(NC1N=C(c2ccccc2F)c2ccccc2-n2cnnc21)c1ccc(Cl)cc1 (stereo not given) ? 0.12

Quick one: ED50 for O=C(NC1N=C(c2ccccc2F)c2ccccc2-n2cnnc21)c1cc2ccccc2[nH]1 (stereo not given) ? 0.02

Quick one: ED50 for `Cc1nnc2n1-c1ccccc1C(c1ccccc1F)=N[C@@H]2Cc1c[nH]c2ccccc12` ? 76

Quick one: ED50 for Cc1nnc2n1-c1ccccc1C(c1ccccc1F)=NC2NC(=O)c1cc2ccccc2[nH]1 (stereo not given) ? 0.05

Quick one: ED50 for CN1C(=O)[C@@H](NC(=O)c2cc3ccccc3[nH]2)N=C(c2ccccc2)c2ccccc21 [DEVAZEPIDE] ? 0.04

----------
- measurement_description: Displacement of [125I]CCK from Cholecystokinin receptor of guinea pig brain
- Parameters: species or system Cavia porcellus
Kindly state pIC50 for each of the entries shown.
// scale note: pIC50 = -log10(conc_M); give the bare number

Quick one: pIC50 for Cc1nnc2n1-c1ccccc1C(c1ccccc1)=NC2NC(=O)Nc1ccc(Cl)cc1 (stereo not given) ? 6.92

Quick one: pIC50 for Cc1nnc2n1-c1ccccc1C(c1ccccc1F)=NC2NC(=O)c1cc2ccccc2[nH]1 (stereo not given) ? 8.10

Quick one: pIC50 for O=C(Nc1ccc(Cl)cc1)NC1N=C(c2ccccc2)c2ccccc2-n2cnnc21 (stereo not given) ? 6.32

Quick one: pIC50 for `Cc1nnc2n1-c1ccccc1C(c1ccccc1F)=N[C@@H]2Cc1c[nH]c2ccccc12` ? 4.41

----------
- study_target: UniProt:P30551
- Sequence (P30551 whole entry): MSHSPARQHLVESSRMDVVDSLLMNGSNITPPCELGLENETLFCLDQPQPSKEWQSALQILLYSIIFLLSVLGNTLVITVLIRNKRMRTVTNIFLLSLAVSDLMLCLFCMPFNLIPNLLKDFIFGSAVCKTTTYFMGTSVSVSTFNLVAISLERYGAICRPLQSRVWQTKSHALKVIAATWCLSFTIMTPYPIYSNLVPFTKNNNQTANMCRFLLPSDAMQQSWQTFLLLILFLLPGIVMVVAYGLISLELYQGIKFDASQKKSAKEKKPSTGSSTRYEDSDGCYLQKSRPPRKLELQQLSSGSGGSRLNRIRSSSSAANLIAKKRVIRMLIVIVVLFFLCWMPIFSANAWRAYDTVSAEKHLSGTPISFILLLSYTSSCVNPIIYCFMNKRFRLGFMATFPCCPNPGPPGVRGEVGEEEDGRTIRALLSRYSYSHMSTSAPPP
assay_metric: IC50 (µM)
Answer with a number only, understood to be in µM.

Quick one: IC50 for `Cc1nnc2n1-c1ccc(Cl)cc1C(c1ccccc1)=NC2` ? 64

Quick one: IC50 for O=C(NC1N=C(c2ccccc2)c2ccccc2-n2cnnc21)OCc1ccccc1 (centres undefined) ? 0.1

Quick one: IC50 for `Cc1nnc2n1-c1ccc(Cl)cc1C(c1ccccc1Cl)=NC2` ? 39

Quick one: IC50 for Cc1nnc2n1-c1ccccc1C(c1ccccc1F)=NC2NC(=O)c1cc2ccccc2[nH]1 (centres undefined) ? 0.0002
